Field IC50: reported value for UniProt:P26684; entries drawn from several documents.
Molecular target: UniProt:P26684
Sequence (P26684 whole entry): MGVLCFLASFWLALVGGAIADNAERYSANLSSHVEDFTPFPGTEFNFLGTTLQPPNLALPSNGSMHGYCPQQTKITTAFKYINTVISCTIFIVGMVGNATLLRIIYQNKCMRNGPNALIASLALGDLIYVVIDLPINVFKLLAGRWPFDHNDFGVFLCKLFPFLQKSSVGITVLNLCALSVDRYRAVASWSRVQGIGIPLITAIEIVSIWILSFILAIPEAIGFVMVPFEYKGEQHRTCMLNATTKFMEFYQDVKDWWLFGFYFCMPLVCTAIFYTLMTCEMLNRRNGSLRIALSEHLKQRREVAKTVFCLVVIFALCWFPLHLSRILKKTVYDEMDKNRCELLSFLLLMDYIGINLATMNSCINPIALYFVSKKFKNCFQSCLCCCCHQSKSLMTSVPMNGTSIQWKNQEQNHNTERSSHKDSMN

Worked cases, answers included:
MOLECULE: Cc1onc(NS(=O)(=O)c2ccc(N)cc2)c1C
SYSTEM: UniProt:P26684
IC50: 260 nM
--
MOLECULE: O=C(O)c1c(Cc2cc3c(cc2Cl)OCO3)c(-c2ccccc2)nn1CC1CCCC(C(=O)O)C1 (centres undefined)
SYSTEM: UniProt:P26684
IC50: 2.5 nM
--
MOLECULE: Cc1c(C(=O)O)oc2cccc(OCc3ccc4nonc4c3)c12
SYSTEM: UniProt:P26684
IC50: 39 nM

Batch request: IC50 for each of the following molecules.
1. COc1ccc(C(=O)/C(Cc2cc(OC)c(OC)c(OC)c2)=C(\C(=O)O)c2ccc3nsnc3c2)cc1C
2. O=C(O)c1c(Cc2cc3c(cc2Cl)OCO3)c(-c2ccccc2)nn1CC1OCCO1
3. CCCOc1ccc2c(c1)c(-c1ccc3c(c1)OCO3)c(C(=O)O)n2Cc1ccc2nsnc2c1
4. COc1ccc(Cn2nc(-c3ccccc3)c(Cc3cc4c(cc3Cl)OCO4)c2C(=O)O)c(OCC(=O)O)c1
5. O=C(O)c1c(Cc2cc3c(cc2Cl)OCO3)c(-c2cccs2)nn1CC1CCCCC1
6. O=C(O)c1c(Cc2cc3c(cc2Cl)OCO3)c(-c2ccccc2)nn1CC12CC3CC(CC(C3)C1)C2

1. 1.4 nM
2. 70 nM
3. 97 nM
4. 89 nM
5. 1.1 nM
6. 3.4 nM

----------
Below are IC50 measurements against Endothelin-1 receptor (Rattus norvegicus) drawn from the literature.
Target: Endothelin-1 receptor (Rattus norvegicus)
Sequence (P26684 whole entry): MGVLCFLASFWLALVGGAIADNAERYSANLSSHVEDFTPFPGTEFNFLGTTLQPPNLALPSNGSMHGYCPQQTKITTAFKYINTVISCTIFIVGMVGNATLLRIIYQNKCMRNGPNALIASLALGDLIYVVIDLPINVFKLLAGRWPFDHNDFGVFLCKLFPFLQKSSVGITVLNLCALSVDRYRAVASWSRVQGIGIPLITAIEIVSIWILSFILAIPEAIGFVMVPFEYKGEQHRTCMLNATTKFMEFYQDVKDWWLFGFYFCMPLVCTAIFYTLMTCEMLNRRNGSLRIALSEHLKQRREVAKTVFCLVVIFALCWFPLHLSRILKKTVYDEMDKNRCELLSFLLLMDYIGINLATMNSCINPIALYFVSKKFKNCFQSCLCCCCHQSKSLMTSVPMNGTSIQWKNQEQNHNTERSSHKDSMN
Note: a bare number is incomplete; add the unit.

Examples from the recorded data:
GIVEN SMILES: COc1cc2c(-c3ccc4c(c3)OCO4)c(C(=O)O)n(Cc3ccc4nsnc4c3)c2cc1OC
IC50: 33 nM
//
GIVEN SMILES: Cc1c(C(=O)O)oc2cccc(OCc3ccc4nsnc4c3)c12
IC50: 23 nM
//
GIVEN SMILES: Cc1onc(NS(=O)(=O)c2cccc3c(N(C)C)cccc23)c1C
IC50: 15 nM

Provide each entry's IC50 from the list below.
1. COc1ccc(-c2c(C(=O)O)c(=O)n(Cc3ccc4nsnc4c3)c3c2oc2ccccc23)cc1
2. COc1cc(C/C(C(=O)c2ccc(OC(C)C)cc2)=C(/C(=O)O)c2ccc3nsnc3c2)cc(OC)c1OC
3. COc1cc(F)ccc1C(=O)/C(Cc1cc(OC)c(OC)c(OC)c1)=C(\C(=O)O)c1ccc2nsnc2c1
4. COc1ccc(C(=O)/C(Cc2ccccc2OC)=C(\C(=O)O)c2ccc3nsnc3c2)cc1
5. O=C(O)c1c(Cc2cc3c(cc2Cl)OCO3)c(-c2ccccc2)nn1Cc1cccc(Cl)c1
6. COc1ccc(Cn2nc(-c3cccs3)c(Cc3cc4c(cc3Cl)OCO4)c2C(=O)O)c(OCC(=O)O)c1

1: 390 nM; 2: 64 nM; 3: 12 nM; 4: 3.4 nM; 5: 17 nM; 6: 14.9 nM
